tgt: P. aeruginosa PBP3 (Pseudomonas aeruginosa)
Sequence (G3XD46 whole entry): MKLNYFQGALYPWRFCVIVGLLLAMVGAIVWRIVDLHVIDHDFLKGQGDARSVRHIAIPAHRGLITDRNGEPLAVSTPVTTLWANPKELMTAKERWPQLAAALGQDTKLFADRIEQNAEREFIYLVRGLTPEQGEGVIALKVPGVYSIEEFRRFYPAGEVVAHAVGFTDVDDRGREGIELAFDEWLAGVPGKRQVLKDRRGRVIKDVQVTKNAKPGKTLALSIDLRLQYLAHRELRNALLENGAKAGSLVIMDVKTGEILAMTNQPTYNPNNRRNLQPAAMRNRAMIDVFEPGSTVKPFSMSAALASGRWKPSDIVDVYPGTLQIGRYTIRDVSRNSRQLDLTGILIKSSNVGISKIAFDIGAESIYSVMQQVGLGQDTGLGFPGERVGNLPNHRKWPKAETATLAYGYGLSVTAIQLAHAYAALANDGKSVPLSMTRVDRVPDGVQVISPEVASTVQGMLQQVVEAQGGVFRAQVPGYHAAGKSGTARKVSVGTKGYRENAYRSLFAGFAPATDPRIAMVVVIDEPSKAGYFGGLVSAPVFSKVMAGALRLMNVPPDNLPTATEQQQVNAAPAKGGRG
assay.text: Bocillin-FL fluorescence polarization competition binding assay, P. aeruginosa PBP3
assay.context: P. aeruginosa PBP3; assay validation with beta-lactams; read-out: EC50 (concentration of beta-lactam required to reduce the amount of PBP bound-Bocillin-FL by 50%)
pEC50: −log10 of the molar value.
value.kind: pEC50

Kindly note: P. aeruginosa PBP3 (Pseudomonas aeruginosa), C[C@H]1[C@H](NC(=O)/C(=N\OC(C)(C)C(=O)O)c2csc(N)n2)C(=O)N1S(=O)(=O)O [aztreonam, reference compound] , pEC50 value reported: > 6.30

====

# Lookup of reported MIC keyed by entry
Test system: N. gonorrhoeae WHO K
assay.text: Liquid broth MIC in Fastidious broth
Type: cell-based
assay.context: Neisseria gonorrhoeae, read-out: Minimum Inhibitory Concentration, N. gonorrhoeae WHO K

Example results:
{"columns": ["molecule", "value.kind", "endpoint.result"],
 "data": [
  ["NCCCN1CCN(C(=O)N[C@@H](C(=O)N[C@H]2Cc3cc(Cl)c(F)c(C(=O)O)c3OB2O)c2c(F)cc(O)c(O)c2Cl)C(=O)C1=O", "MIC", "> 64 µg/mL"],
  ["NCCN1CCN(C(=O)N[C@H](C(=O)N[C@H]2Cc3cccc(C(=O)O)c3OB2O)c2cc(F)c(O)c(F)c2F)C(=O)C1=O (single isomer, unassigned)", "MIC", "> 64 µg/mL"],
  ["CCN1CCN(C(=O)NC(C(=O)N[C@H]2Cc3cccc(C(=O)O)c3OB2O)c2cccc(NS(N)(=O)=O)c2)C(=O)C1=O (stereo partly drawn)", "MIC", "16 to 32 µg/mL"],
  ["N=C(N)NCCN1CCN(C(=O)NC(C(=O)N[C@H]2Cc3ccc(F)c(C(=O)O)c3OB2O)c2ncc(O)cc2F)C(=O)C1=O (stereo partly drawn)", "MIC", "> 64 µg/mL"],
  ["CCN1CCN(C(=O)NC(C(=O)N[C@H]2Cc3ccc(F)c(C(=O)O)c3OB2O)c2nc(N)sc2F)C(=O)C1=O (stereo partly drawn)", "MIC", "16 to 32 µg/mL"]
]}

Now for a further molecule.
# MIC (molecule: NCCN1CCN(C(=O)N[C@H](C(=O)N[C@H]2Cc3ccc(F)c(C(=O)O)c3OB2O)c2c(F)cc(O)cc2F)C(=O)C1=O (single isomer, unassigned) ) is > 64 µg/mL
